Experiment: Phase 1 Stage 1 clinical pharmacokinetics of SC ZA co-administered with rHuPH20
Assay type: in vivo, human
Settings: human, serum, sc, ZA 0.25 mg SC + 24000 U rHuPH20; individual subjects
Experimental: A pharmacokinetic study of zoledronic acid (ZA) co-administered with rHuPH20 in human subjects was conducted. […] Serum concentration of ZA was determined using a qualified LC-MS-MS assay after derivatization with diazomethane (Zhu, L S et al. (2006) Rapid Commun. […] The assay range was from 2.0 to 400 ng/mL with a lower limit of quantitation (LLOQ) at 2.0 ng/mL. […] Summary statistics (mean, standard deviation, and median) were calculated using JMP or Microsoft Excel.
endpointLabel: Cmax
Numeric answer plus unit only.

**Q:** State the recorded Cmax for this entry: O=P(O)(O)C(O)(Cn1ccnc1)P(=O)(O)O [ZA]
**A:** 6.84 ng/mL

* * *

experiment: Phase 1 Stage 1 clinical pharmacokinetics of SC ZA co-administered with rHuPH20; type: in vivo, human; settings: human, serum, sc, ZA 0.25 mg SC + 24000 U rHuPH20; individual subjects; read-out: Tmax
endpointLabel: Tmax (h)
Only the number, expressed in h, is required.

**Q:** State the recorded Tmax for this entry: O=P(O)(O)C(O)(Cn1ccnc1)P(=O)(O)O
**A:** 1.06

* * *

test: Phase 1 Stage 1 clinical pharmacokinetics of SC ZA co-administered with rHuPH20; format: in vivo, human; details: human, serum, sc, ZA 0.25 mg SC + 24000 U rHuPH20; mean, n=3; read-out: AUC (0-∞)
endpointLabel: AUC(0-inf) (ng·h/mL)
Only the number, expressed in ng·h/mL, is required.

**Q:** State the recorded AUC(0-inf) for this entry: O=P(O)(O)C(O)(Cn1ccnc1)P(=O)(O)O [ZA]
**A:** 30.9

* * *

assay: Phase 1 Stage 1 clinical pharmacokinetics of SC ZA co-administered with rHuPH20; assay type: in vivo, human; settings: human, serum, sc, serum; ZA 1 mg SC infusion + 24000 Units rHuPH20; 1 h post infusion; n=3; read-out: Median Conc.
endpointLabel: concentration at 1 h
Numeric answer plus unit only.

**Q:** State the recorded concentration at 1 h for this entry: O=P(O)(O)C(O)(Cn1ccnc1)P(=O)(O)O
**A:** 27.2 ng/mL

* * *

assay: Pharmacokinetics of ZA in pig serum after IV or SC infusion with or without rHuPH20 (LC-MS-MS, non-compartmental analysis); assay type: in vivo; details: female, Yorkshire, pig, serum, sc, […], pig 69; SC ZA […], 25 mL over 4 min, no rHuPH20; read-out: Vss/F
endpointLabel: Vd/F (L/kg)
Only the number, expressed in L/kg, is required.

**Q:** State the recorded Vd/F for this entry: O=P(O)(O)C(O)(Cn1ccnc1)P(=O)(O)O [ZA]
**A:** 0.652

* * *

assay: Phase 1 Stage 1 clinical pharmacokinetics of SC ZA co-administered with rHuPH20; type: in vivo, human; conditions: human, serum, sc, ZA 1 mg SC + 24000 U rHuPH20; mean, n=3; read-out: Tmax
endpointLabel: Tmax (h)
Only the number, expressed in h, is required.

**Q:** State the recorded Tmax for this entry: O=P(O)(O)C(O)(Cn1ccnc1)P(=O)(O)O [ZA]
**A:** 1.03

* * *

assay: Phase 1 Stage 1 clinical pharmacokinetics of SC ZA co-administered with rHuPH20; type: in vivo, human; settings: human, serum, sc, […], Subj 8; ZA […] SC; inf 0.531 hr; PH20 22944 U; read-out: Tmax
endpointLabel: Tmax (h)
Only the number, expressed in h, is required.

**Q:** State the recorded Tmax for this entry: O=P(O)(O)C(O)(Cn1ccnc1)P(=O)(O)O [ZA]
**A:** 1.41

* * *

experiment: Phase 1 Stage 1 clinical pharmacokinetics of SC ZA co-administered with rHuPH20; assay type: in vivo, human; settings: human, serum, sc, serum; ZA 2 mg SC infusion + 24000 Units rHuPH20; 0 h post infusion; n=3; read-out: Median Conc.
endpointLabel: concentration at 0 h (ng/mL)
Only the number, expressed in ng/mL, is required.

**Q:** State the recorded concentration at 0 h for this entry: O=P(O)(O)C(O)(Cn1ccnc1)P(=O)(O)O
**A:** 39.6

* * *

assay: Phase 1 Stage 1 clinical pharmacokinetics of SC ZA co-administered with rHuPH20; assay type: in vivo, human; details: human, serum, sc, serum; ZA 5 mg SC infusion + 24000 Units rHuPH20; 12 h post infusion; individual subjects; read-out: Zoledronic Acid Concentration
endpointLabel: concentration at 12 h (ng/mL)
Only the number, expressed in ng/mL, is required.

**Q:** State the recorded concentration at 12 h for this entry: O=P(O)(O)C(O)(Cn1ccnc1)P(=O)(O)O
**A:** 3.91

* * *

assay: Pharmacokinetics of ZA in pig serum after IV or SC infusion with or without rHuPH20 (LC-MS-MS, non-compartmental analysis); format: in vivo; conditions: female, Yorkshire, pig, serum, subcutaneous, […], Time 2 h; pig ID 69; Study Group 2; SC; ZA […]; 25 mL, 4 min; rHuPH20 0 U/mL; read-out: Zoledronic Acid Serum Concentration
endpointLabel: concentration at 2 h (ng/mL)
Only the number, expressed in ng/mL, is required.

**Q:** State the recorded concentration at 2 h for this entry: O=P(O)(O)C(O)(Cn1ccnc1)P(=O)(O)O
**A:** 31.8

* * *

assay: Phase 1 Stage 1 clinical pharmacokinetics of SC ZA co-administered with rHuPH20; type: in vivo, human; conditions: human, serum, sc, serum; ZA 1 mg SC infusion + 24000 Units rHuPH20; 0 h post infusion; n=3; read-out: Mean Conc.
endpointLabel: concentration at 0 h (ng/mL)
Only the number, expressed in ng/mL, is required.

**Q:** State the recorded concentration at 0 h for this entry: O=P(O)(O)C(O)(Cn1ccnc1)P(=O)(O)O
**A:** 20.5

* * *

experiment: Phase 1 Stage 1 clinical pharmacokinetics of SC ZA co-administered with rHuPH20; format: in vivo, human; conditions: human, serum; Subj 46; ZA 0.0877 mg/kg SC; inf 0.276 hr; PH20 12000 U; read-out: T½ λz (converted)
endpointLabel: half-life (h)
Only the number, expressed in h, is required.

**Q:** State the recorded half-life for this entry: O=P(O)(O)C(O)(Cn1ccnc1)P(=O)(O)O
**A:** 20.8

* * *

assay: Pharmacokinetics of ZA in pig serum after IV or SC infusion with or without rHuPH20 (LC-MS-MS, non-compartmental analysis); format: in vivo; conditions: female, Yorkshire, pig, serum, subcutaneous, […], Time 5 min; pig ID 60; Study Group 2; SC; ZA […]; 100 mL, 16 min; rHuPH20 0 U/mL; read-out: Zoledronic Acid Serum Concentration
endpointLabel: concentration at 5 min
Numeric answer plus unit only.

**Q:** State the recorded concentration at 5 min for this entry: O=P(O)(O)C(O)(Cn1ccnc1)P(=O)(O)O
**A:** 85 ng/mL

* * *

assay: Phase 1 Stage 1 clinical pharmacokinetics of SC ZA co-administered with rHuPH20; assay type: in vivo, human; conditions: human, serum, sc, 0.0653 mg/kg, Subj 41; ZA 0.0653 mg/kg SC; inf […]; PH20 12216 U; read-out: Tmax
endpointLabel: Tmax (h)
Only the number, expressed in h, is required.

**Q:** State the recorded Tmax for this entry: O=P(O)(O)C(O)(Cn1ccnc1)P(=O)(O)O [ZA]
**A:** 1.01

* * *

assay: Phase 1 Stage 1 clinical pharmacokinetics of SC ZA co-administered with rHuPH20; type: in vivo, human; settings: human, serum, sc, […], Subj 31; ZA […] SC; inf 0.554 hr; PH20 23952 U
endpointLabel: Cmax (ng/mL)
Only the number, expressed in ng/mL, is required.

**Q:** State the recorded Cmax for this entry: O=P(O)(O)C(O)(Cn1ccnc1)P(=O)(O)O
**A:** 53

* * *

experiment: Phase 1 Stage 1 clinical pharmacokinetics of SC ZA co-administered with rHuPH20; type: in vivo, human; conditions: human, serum, sc, serum; ZA 0.5 mg SC infusion + 24000 Units rHuPH20; 2 h post infusion; n=3; read-out: Mean Conc.
endpointLabel: concentration at 2 h (ng/mL)
Only the number, expressed in ng/mL, is required.

**Q:** State the recorded concentration at 2 h for this entry: O=P(O)(O)C(O)(Cn1ccnc1)P(=O)(O)O
**A:** 11.1

* * *

test: Phase 1 Stage 1 clinical pharmacokinetics of SC ZA co-administered with rHuPH20; type: in vivo, human; settings: human, serum, sc, […], AUC (0-12 h), Subj 26; ZA […] SC; inf […]; PH20 23088 U
endpointLabel: AUC(0-t) (ng·h/mL)
Only the number, expressed in ng·h/mL, is required.

**Q:** State the recorded AUC(0-t) for this entry: O=P(O)(O)C(O)(Cn1ccnc1)P(=O)(O)O
**A:** 137
